// data source = the supplement of paper PMC8728848

- assayed target: Gal(b1-3)[GlcNAc(b1-6)]GalNAc
- run description: glycan array binding signal (z-score within array); higher = stronger binding
- settings: glycan notation: IUPAC condensed, linker removed
The full list was thinned out, with the strongest signals kept by preference.
observation type: glycan array binding signal (z-score)

SAOUHSC 02783 (Staphylococcus aureus), Q5HD69 (protein) MIHSKKLTLGICLVLLIILIVGYVIMTKTNGRNAQIKDTFNQTLKLYPTKNLDDFYDKEGFRDQEFKKGDKGTWIVNSEMVIEPKGKDMETRGMVLYINRNTRTTKGYYFISEMTDDSNGRPKDDEKRYPVKMEHNKIIPTKPLPNDKLKKEIENFKFFVQYGNFKDINDYKDGDISYNPNVPSYSAKYQLNNDDYNVQQLRKRYDIPTKQAPKLLLKGDGDLKGSSVGSRSLEFTFVENKEENIYFTDSVQYTPSEDTRYESN; -0.308
Clone646PsrP (Streptococcus pneumoniae) (protein) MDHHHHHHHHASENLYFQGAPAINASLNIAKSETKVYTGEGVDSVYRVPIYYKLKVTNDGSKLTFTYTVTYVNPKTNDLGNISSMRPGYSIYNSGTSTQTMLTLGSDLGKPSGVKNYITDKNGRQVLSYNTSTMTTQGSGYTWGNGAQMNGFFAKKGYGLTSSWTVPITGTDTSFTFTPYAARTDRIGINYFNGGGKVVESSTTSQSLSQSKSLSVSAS; 0.41
F17bG (Escherichia coli), Q47200 (protein) MTNFYKVFLAVFILVCCNISHAVVSFIGSTENDVGPSQGSYSSTHAMDNLPFVYNTGYNIGYQNANVWRIGGGFCVGLDGKVDLPVVGSLDGQSIYGLTEEVGLLIWMGDTNYSRGTAMSGNSWENVFSGWCVGNYLSTQGLSVHVRPVILKRNSSAQYSVQKTSIGSIRMRPYNGSSAGSVQTTVNFSLNPFTLNDTVTSCRLLTPSAVNVSLAAISAGQLPSSGDEVVAGTTSLKLQCDAGVTVWATLTDATTPSNRSDILTLTGASTATGVGLRIYKNTDSTPLKFGPDSPVKGNENQWQLSTGTETSPSVRLYVKYVNTGEGINPGTVNGISTFTFSYQ; 1.08
BIp1-His (Cryptococcus neoformans) (protein) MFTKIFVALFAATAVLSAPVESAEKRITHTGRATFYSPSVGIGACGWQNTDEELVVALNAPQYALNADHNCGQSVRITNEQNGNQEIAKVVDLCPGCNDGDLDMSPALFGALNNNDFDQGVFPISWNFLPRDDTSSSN; 0.127
